Biological target: T1, CDT1^ΔN (N-terminally truncated CDT1^158-546) (human, UniProt Q9H211 158-546)
T1 chain: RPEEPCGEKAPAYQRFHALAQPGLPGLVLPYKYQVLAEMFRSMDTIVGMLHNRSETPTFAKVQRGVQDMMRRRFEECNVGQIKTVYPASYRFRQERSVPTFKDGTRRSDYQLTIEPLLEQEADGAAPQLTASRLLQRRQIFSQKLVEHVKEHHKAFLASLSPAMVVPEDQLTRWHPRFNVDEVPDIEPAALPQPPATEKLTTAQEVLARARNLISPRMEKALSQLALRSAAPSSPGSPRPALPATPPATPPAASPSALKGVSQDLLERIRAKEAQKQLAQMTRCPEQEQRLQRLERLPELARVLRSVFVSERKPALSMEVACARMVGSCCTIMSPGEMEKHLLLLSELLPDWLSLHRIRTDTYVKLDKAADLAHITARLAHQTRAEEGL
Assay: SPR
For each of the binders below, state its koff.
Dear colleague, please return just the value in s⁻¹, with no unit written.

Suppose we examine the binder Ac-SQYWKEVAEKRRKALYEALKENEKLHKEIEQKDNEIARLKKENKELAEVA-NH2 (peptide, UniProt O75496 96-145, looked up, geminin, human, UniProt O75496, residues 96-145; Made on Rink amide resin; source: synthetic peptide) [Gem^96–145] ; what koff value has been reported?
0.031

I would be grateful if you could share the reported koff for Ac-SQYWKEVAEKRRKALYEALKENEKLHKEIEQKDNEIARLK-NH2 (peptide, UniProt O75496 96-135, looked up, Made on Rink amide resin; source: synthetic peptide) [Gem^96–135 (minimal CDT1-binding peptide)] .
0.024

Please report the recorded koff for full-length geminin (Gem^FL) (natural protein, human, UniProt O75496 1-209, looked up, geminin, human, UniProt O75496, full length; Dimer in solution; In the co-purification of the CG complex the His tag is still on geminin at the HisTrap step and is cleaved afterwards; Plasmid is in Supplementary Data 1; also called WT geminin; source: E. coli BL21 (DE3), purified (HisTrap Excel, POROS HQ, Superdex 200); also co-expressed with untagged CDT1 in E. coli BL21 (DE3) and purified in …) MNPSMKQKQEEIKENIKNSSVPRRTLKMIQPSASGSLVGRENELSAGLSKRKHRNDHLTSTTSSPGVIVPESSENKNLGGVTQESFDLMIKENPSSQYWKEVAEKRRKALYEALKENEKLHKEIEQKDNEIARLKKENKELAEVAEHVQYMAELIERLNGEPLDNFESLDNQEFDSEEETVEDSLVEDSEIGTCAEGTVSSSTDAKPCI .
0.0019

Find the recorded koff belonging to Ac-SQYWKEVAEKRRKALYEALKENEKLHKEIEQKDNEIARLKKENKE-NH2 (peptide, UniProt O75496 96-140, looked up, geminin, human, UniProt O75496, residues 96-140; Made on Rink amide resin; source: synthetic peptide) [Gem^96–140] and report it.
0.022
